The following compounds are listed with their measured pIC50 values.
molecular target: wild-type GrlAB protein (DNA topoisomerase IV) of S. aureus (Staphylococcus aureus, UniProt P0C1S7+P0C1U9); construct: pRSETB vector, T7 promoter); experiment: Decatenation of kinetoplast DNA by purified wild-type GrlAB protein
Remember the convention: pIC50 equals -log10 of concentration in molar.

In [3]: df
Out[3]:
                                   compound  reported_value
0  C[C@@H]1CN(c2c(F)c(N)c3c(=O)c(C(=O)O)cn(C4CC4)c3c2F)C[C@H](C)N1            4.82

For the next question, use this compound.
Kindly indicate its recorded pIC50. Item: CC1COc2c(N3CCN(C)CC3)c(F)cc3c(=O)c(C(=O)O)cn1c23 (stereo not drawn)
4.56

###

molecular target: mutant protein GrlA(Ser-80→Tyr)B (DNA topoisomerase IV) of S. aureus (Staphylococcus aureus, UniProt P0C1S7+P0C1U9, F80Y); assay: biochemical
The following compounds are listed with their measured IC50 values.
Provide only the numeric value, understood in µM.

>>> df
                                   compound  property_measured  unit_symbol  reported_value
0  C[C@@H]1CN(c2c(F)c(N)c3c(=O)c(C(=O)O)cn(C4CC4)c3c2F)C[C@H](C)N1 [sparfloxacin]               IC50           µM            1270

Kindly indicate its recorded IC50. Item: CC1COc2c(N3CCN(C)CC3)c(F)cc3c(=O)c(C(=O)O)cn1c23 (stereo not drawn) [Ofloxacin]
692
